Biological target: T1, rat growth hormone binding protein (rGHBP) (rat, UniProt P16310 19-265)
T1 construct: extracellular domain; also called rat GHBP; soluble rGHBP
T1 sequence (looked up): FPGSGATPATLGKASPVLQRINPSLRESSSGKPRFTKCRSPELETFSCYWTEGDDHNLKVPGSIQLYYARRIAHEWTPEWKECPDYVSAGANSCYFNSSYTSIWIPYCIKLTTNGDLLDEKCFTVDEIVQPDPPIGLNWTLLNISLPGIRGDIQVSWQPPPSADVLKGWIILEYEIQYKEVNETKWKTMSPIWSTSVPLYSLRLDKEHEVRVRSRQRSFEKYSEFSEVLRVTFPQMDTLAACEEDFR
Test: BIAcore, bPeptide binding to rGHBP, appKD 1
Where no end group is shown, it is not given here.
resultType: pKd
Note on units: pKd is unitless, being -log10 of a concentration expressed in mol/L.

Example entries begin here.
binder	pKd
DYKDLCQSWQVTWPGWLAGWCA (cysteine pairing not given here; also: biotinylated in bP form, position not given here, H5 mutant from the secondary library (Y9 to W, L5 to W, G6 to E), synthetic) [peptide #418]	6.82
DYKDLCQRLGVTWPGWLAGWCA (cysteine pairing not given here; also: biotinylated, position not given here, H5 mutant, synthetic) [peptide #443]	6.22
DYKDLCQRLGVGWPGWLSGWCA (cysteine pairing not given here; also: biotinylated in bP form, position not given here, H5 mutant from the secondary library, synthetic) [peptide #447]	6.80

# evaluate next
Task: Record request: pKd value, item DYKDLCQSLGVTYPGWLAGWCA (cysteine pairing not given here; also: biotinylated in some formats, position not given here, also called H5 phage) [GHBP-H5 peptide (H5WT)]
Result: 5.89
